System: HT-29
Experiment: Antiproliferative activity against human HT-29 cells measured after 72 hrs by MTT assay
Conditions: HT-29, 72 h
Reported IC50 values for a set of compounds
Answer with a number only, understood to be in µM.

Some entries whose results are on file:
COc1cc2c(Oc3ccc(NC(=O)C4(c5nnc(-c6ccc(F)cc6)o5)CC4)cc3F)ccnc2cc1OCCCN1CCN(C)CC1    1.05
COc1cc2c(Oc3ccc(NC(=O)C4(c5nnc(-c6ccc(F)cc6)o5)CC4)cc3F)ccnc2cc1OCCCN1CCCC1    0.779
COc1cc2c(Oc3ccc(NC(=O)Cc4ncc(-c5ccc(F)cc5)o4)cc3F)ccnc2cc1OCCCN1CCCCC1    1.04
COc1cc2c(Oc3ccc(NC(=O)C(C)(C)c4nnc(-c5ccc(F)cc5)o4)cc3F)ccnc2cc1OCCCN1CCCCC1    0.871

Any idea what IC50 was measured for COc1cc2c(Oc3ccc(NC(=O)C(C)c4nnc(-c5ccc(F)cc5)o4)cc3F)ccnc2cc1OCCCN1CCCCC1 (stereo not given) ?
1

====

Test system: HT-29
Test: Antiproliferative activity against human HT-29 cells measured after 72 hrs by MTT assay
Conditions: HT-29, 72 h
RESULT_TYPE: IC50 (µM)
Respond with the bare value in µM.

// solved cases for IC50 follow
COc1cc2c(Oc3ccc(NC(=O)C(C)(C)c4nnc(-c5ccc(F)cc5)o4)cc3F)ccnc2cc1OCCCN1CCOCC1    2.48
COc1cc2c(Oc3ccc(NC(=O)C(C)(C)c4nnc(-c5ccc(F)cc5)o4)cc3F)ccnc2cc1OCCCN1CCN(C)CC1    1.08

Given the entry CCC(C(=O)Nc1ccc(Oc2ccnc3cc(OCCCN4CCOCC4)c(OC)cc23)c(F)c1)c1nnc(-c2ccc(F)cc2)o1 (centres undefined) , report its measured IC50.
2.02

====

Tested on: HT-29
Assay: Antiproliferative activity against human HT-29 cells measured after 72 hrs by MTT assay
Conditions: HT-29, 72 h
RESULT_TYPE: pIC50
API: returns pIC50 as number; meaning -log10 of concentration in mol/L.

Which pIC50 reading was recorded for the compound `COc1cc2c(Oc3ccc(NC(=O)C4(c5nnc(-c6ccc(F)cc6)o5)CC4)cc3F)ccnc2cc1OCCCN1CCCCC1` ?
5.99

====

Test system: HT-29
Assay: Antiproliferative activity against human HT-29 cells measured after 72 hrs by MTT assay
Settings: HT-29, 72 h
hey, just use Yes if measured IC50 is less than 3 µM, otherwise No

Previously resolved entries follow.
COc1cc2c(Oc3ccc(NC(=O)Cc4nnc(-c5ccc(Cl)cc5)o4)cc3F)ccnc2cc1OCCCN1CCC(C)CC1    Yes
COc1cc2nccc(Oc3ccc(NC(=O)c4ncc(-c5ccc(F)cc5)o4)cc3)c2cc1OC    No
COc1cc2c(Oc3ccc(NC(=O)Cc4ncc(-c5ccc(F)cc5)o4)cc3F)ccnc2cc1OCCCN1CCC(C)CC1    Yes
COc1cc2c(Oc3ccc(NC(=O)Cc4nnc(-c5ccc(F)cc5)o4)cc3F)ccnc2cc1OCCCN1CCOCC1    No
CCC(C(=O)Nc1ccc(Oc2ccnc3cc(OCCCN4CCCC4)c(OC)cc23)c(F)c1)c1nnc(-c2ccc(F)cc2)o1 (stereo not given)    Yes
COc1cc2c(Oc3ccc(NC(=O)Cc4nnc(-c5ccc(F)cc5)o4)cc3F)ccnc2cc1OCCCN1CCN(C)CC1    No
COc1cc2c(Oc3ccc(NC(=O)Cc4ncc(-c5ccc(F)cc5)o4)cc3F)ccnc2cc1OCCCN1CCN(C)CC1    Yes
COc1cc2c(Oc3ccc(NC(=O)C4(c5nnc(-c6ccc(F)cc6)o5)CC4)cc3F)ccnc2cc1OCCCN1CCOCC1    No

Lab note: IC50 threshold 3 µM. Does this compound come in strictly under it? `COc1cc2c(Oc3ccc(NC(=O)c4nnc(-c5ccc(F)cc5)o4)cc3)ccnc2cc1OCCCN1CCC(C)CC1`
No

Query `COc1cc2nccc(Oc3ccc(NC(=O)c4cc(-c5ccc(F)cc5)on4)cc3)c2cc1OC` next
No

Consider next the compound `COc1cc2nccc(Oc3ccc(NC(=O)c4nnc(-c5ccc(F)cc5)o4)cc3)c2cc1OC` in the same way.
No

Same for `COc1cc2c(Oc3ccc(NC(=O)Cc4nnc(-c5ccccc5)o4)cc3F)ccnc2cc1OCCCN1CCC(C)CC1`
No

What do you have for COc1cc2nccc(Oc3ccc(NC(=O)C4(C(=O)Nc5ccc(F)cc5)CC4)cc3)c2cc1OC [CABOZANTINIB] ?
No
